- Experiment Description: Conventional preparation of MKC-242 administered to a human
- Format: in vivo
- Protocol Conditions: plasma, oral; conventional preparation (tablet) administered to a human; read-out: half-life T1/2
Measured Attribute: half-life

Query: half-life; subject: "Cl.c1ccc2c(c1)OC[C@H](CNCCCOc1ccc3c(c1)OCO3)O2" 2 to 5 h
